- EXPERIMENTAL_SYSTEM: human mTOR enzyme (Homo sapiens, UniProt P42345)
- Sequence (P42345 1360-2549 limits assumed): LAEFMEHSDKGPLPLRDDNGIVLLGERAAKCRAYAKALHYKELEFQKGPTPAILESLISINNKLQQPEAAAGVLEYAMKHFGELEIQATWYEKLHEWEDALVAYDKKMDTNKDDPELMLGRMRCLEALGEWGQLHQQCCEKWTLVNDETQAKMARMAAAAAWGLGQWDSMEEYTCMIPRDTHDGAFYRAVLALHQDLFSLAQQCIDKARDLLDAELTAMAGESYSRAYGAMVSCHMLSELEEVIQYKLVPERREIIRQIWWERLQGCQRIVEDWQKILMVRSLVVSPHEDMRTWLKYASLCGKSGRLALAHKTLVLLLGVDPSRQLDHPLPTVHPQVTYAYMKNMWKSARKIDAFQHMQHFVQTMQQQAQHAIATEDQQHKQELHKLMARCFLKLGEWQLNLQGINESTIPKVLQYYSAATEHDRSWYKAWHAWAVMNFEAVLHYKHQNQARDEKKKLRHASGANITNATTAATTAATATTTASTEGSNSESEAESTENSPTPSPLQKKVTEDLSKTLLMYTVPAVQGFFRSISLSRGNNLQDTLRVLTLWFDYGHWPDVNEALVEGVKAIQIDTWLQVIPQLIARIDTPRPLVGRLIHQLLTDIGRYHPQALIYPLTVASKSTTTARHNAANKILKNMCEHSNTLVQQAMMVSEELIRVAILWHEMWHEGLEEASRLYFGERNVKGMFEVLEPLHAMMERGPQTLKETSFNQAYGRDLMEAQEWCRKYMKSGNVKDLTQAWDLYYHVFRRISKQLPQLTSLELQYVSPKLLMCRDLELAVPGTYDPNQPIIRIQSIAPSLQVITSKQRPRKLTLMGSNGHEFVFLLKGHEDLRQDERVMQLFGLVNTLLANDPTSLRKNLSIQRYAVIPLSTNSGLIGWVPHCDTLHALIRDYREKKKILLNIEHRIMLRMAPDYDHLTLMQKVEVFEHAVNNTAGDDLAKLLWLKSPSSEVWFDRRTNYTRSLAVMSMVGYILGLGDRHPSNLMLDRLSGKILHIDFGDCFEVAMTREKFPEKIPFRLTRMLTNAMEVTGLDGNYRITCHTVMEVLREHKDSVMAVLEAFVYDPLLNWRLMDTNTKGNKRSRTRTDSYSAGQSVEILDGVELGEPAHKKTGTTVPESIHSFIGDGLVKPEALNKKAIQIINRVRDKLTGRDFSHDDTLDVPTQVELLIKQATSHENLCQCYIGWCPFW
- EXPERIMENTAL_PROTOCOL: HTRF mTOR enzyme (kinase) assay
- Assay type: biochemical
- CONDITIONS_USED: numeric value; 5 μM ATP, 0.2 μM GST-S6K; read-out: hMTOR IC50
Mark each entry Satisfied if its IC50 sits below 5 nM, and Not satisfied for all others.

Worked examples, 4 compounds total:
INSERT INTO results (compound, category_label) VALUES
  ('Nc1c(Br)c(C2CCC(O)(CO)CC2)nc2c(-c3ccc(-c4ccccc4)nc3)cnn12 (centres unmarked)', 'Not satisfied'),
  ('Nc1c(Br)c([C@H]2CC[C@]3(CC2)NC(=O)NC3=O)nc2c(-c3ccc(-c4ccccc4)nc3)cnn12', 'Not satisfied'),
  ('COCCO[C@]1(C(N)=O)CC[C@@H](c2nc3c(-c4ccc(-c5ccccc5)nc4)cnn3c(N)c2S(C)(=O)=O)CC1', 'Satisfied'),
  ('COCCOC[C@]1(C(=O)O)CC[C@H](c2nc3c(-c4ccc(-c5ccccc5)nc4)cnn3c(N)c2Br)CC1', 'Satisfied');

Attention now turns to another entry.
query: Would you kindly verify if IC50 of `C[C@]1(C(=O)O)CC[C@H](c2nc3c(-c4ccc(-c5ccccc5)nc4)cnn3c(N)c2Br)CC1` is strictly less than 5 nM?
result: Satisfied

###

- EXPERIMENTAL_SYSTEM: human mTOR enzyme (Homo sapiens)
- EXPERIMENTAL_PROTOCOL: HTRF mTOR enzyme (kinase) assay
- Format: biochemical
- CONDITIONS_USED: rated class; 5 μM ATP, 0.2 μM GST-S6K; read-out: hMTOR IC50
pIC50: −log10 of the molar value.
Kindly state pIC50 for each of the entries shown.

# count of solved cases: 2
INSERT INTO measurements (compound, endpoint_value) VALUES
  ('Nc1c(Br)c([C@H]2CC[C@](O)(CC(=O)O)CC2)nc2c(-c3ccc(-c4ccccc4)nc3)cnn12 [Compound 77]', '7.00 to 9.00'),
  ('Nc1c(Br)c([C@H]2CC[C@](OCCN3CCOCC3)(C(=O)O)CC2)nc2c(-c3ccc(-c4ccccc4)nc3)cnn12 [Compound 66]', '7.00 to 9.00');

Here is the next item to consider.
query: Which pIC50 value is on record for CC(=O)c1c(C2CCC(O)(CO)CC2)nc2c(-c3ccc(-c4cscn4)nc3)cnn2c1N (single isomer, unassigned) [Compound 144] ?
result: 7.00 to 9.00

###

- EXPERIMENTAL_SYSTEM: UniProtKB P42345
- EXPERIMENTAL_PROTOCOL: HTRF mTOR enzyme (kinase) assay
- Assay type: biochemical
- CONDITIONS_USED: rated class; 5 μM ATP, 0.2 μM GST-S6K; read-out: hMTOR IC50
PROPERTY_NAME: IC50

# count of solved cases: 3
INSERT INTO results (compound, property_name, endpoint_value) VALUES
  ('COCCOC[C@]1(CO)CC[C@H](c2nc3c(-c4ccc(-c5ccccc5)nc4)cnn3c(N)c2Br)CC1 [Compound 168]', 'IC50', '1 to 100 nM'),
  ('CC(=O)c1c(C2CCC(O)(CO)CC2)nc2c(-c3cnn(-c4cscn4)c3)cnn2c1N (single isomer, unassigned) [Compound 152]', 'IC50', '1 to 100 nM'),
  ('COCCOC1(CO)CCC(c2nc3c(-c4ccc(-c5ccccc5)nc4)cnn3c(N)c2C(C)=O)CC1 (stereo not shown) [Compound 86]', 'IC50', '1 to 100 nM');

query: Lab request: please report IC50 under test system UniProtKB P42345 for COCCO[C@]1(C(=O)NN2CCOCC2)CC[C@@H](c2nc3c(-c4cnn(-c5ccccc5)c4)cnn3c(N)c2S(C)(=O)=O)CC1 [Compound 96]
result: 1 to 100 nM

The measurements presented in this section are drawn from patent US8883801B2.
